system: Staphylococcus aureus; experiment: Antibacterial activity against methicillin-susceptible Staphylococcus aureus after overnight incubation by microbroth dilution method; assay type: functional
The reader will find reported MIC values listed item by item below.
reported property: MIC

                                    molecule  reported_property       result
 0  CCOC(=O)OC(C)OP(=O)(CCCN(O)C(C)=O)OC(C)OC(=O)OCC (stereo unspecified)                MIC  > 200 µg/mL
 1  CC(=O)N(O)CCCP(=O)(OCC(=O)OC(C)(C)C)OCC(=O)OC(C)(C)C                MIC    100 µg/mL
 2  CC(=O)N(O)CCCP(=O)(OC(C)OC(=O)OC(C)(C)C)OC(C)OC(=O)OC(C)(C)C (stereo unspecified)                MIC    100 µg/mL
 3           CC(=O)N(O)CCCP(=O)([O-])O.[Na+]                MIC  > 200 µg/mL
 4  CC(=O)N(O)CCCP(=O)(OCOC(=O)C(C)(C)C)OCOC(=O)C(C)(C)C                MIC    100 µg/mL
 5          CC(=O)N(O)CCCP(=O)(OC(C)C)OC(C)C                MIC  > 200 µg/mL
 6        O=CN(O)CCCP(=O)(O)O [FOSMIDOMYCIN]                MIC  > 200 µg/mL
 7  CC(=O)N(O)CCCP(=O)(OC(C)OC(=O)c1ccccc1)OC(C)OC(=O)c1ccccc1 (stereo unspecified)                MIC  > 200 µg/mL
 8                   CCOP(=O)(CCCN(O)C=O)OCC                MIC  > 200 µg/mL
 9  CC(=O)N(O)CCCP(=O)(OCOC(=O)c1ccccc1)OCOC(=O)c1ccccc1                MIC  > 200 µg/mL
10                CCOP(=O)(CCCN(O)C(C)=O)OCC                MIC  > 200 µg/mL

* * *

The reader will find reported MIC values listed item by item below.
tested on: Escherichia coli; experiment: Antibacterial activity against Escherichia coli expressing TolC after overnight incubation by microbroth dilution method; assay type: functional
reported property: MIC (µg/mL)

>>> df
                                    molecule  display_unit  bound_operator  measured_number
 0  CCOC(=O)OC(C)OP(=O)(CCCN(O)C(C)=O)OC(C)OC(=O)OCC (stereo unspecified)         µg/mL               =              200
 1                   CCOP(=O)(CCCN(O)C=O)OCC         µg/mL               >              200
 2                CCOP(=O)(CCCN(O)C(C)=O)OCC         µg/mL               >              200
 3           CC(=O)N(O)CCCP(=O)([O-])O.[Na+]         µg/mL               =             12.5
 4  CC(=O)N(O)CCCP(=O)(OCOC(=O)C(C)(C)C)OCOC(=O)C(C)(C)C         µg/mL               =              100
 5  CC(=O)N(O)CCCP(=O)(OC(C)OC(=O)OC(C)(C)C)OC(C)OC(=O)OC(C)(C)C (stereo unspecified)         µg/mL               >              200
 6  CC(=O)N(O)CCCP(=O)(OCC(=O)OC(C)(C)C)OCC(=O)OC(C)(C)C         µg/mL               >              200
 7  CC(=O)N(O)CCCP(=O)(OCOC(=O)c1ccccc1)OCOC(=O)c1ccccc1         µg/mL               =               50
 8                       O=CN(O)CCCP(=O)(O)O         µg/mL               =             6.25
 9  CC(=O)N(O)CCCP(=O)(OC(C)OC(=O)c1ccccc1)OC(C)OC(=O)c1ccccc1 (stereo unspecified)         µg/mL               =               50
10          CC(=O)N(O)CCCP(=O)(OC(C)C)OC(C)C         µg/mL               >              200

* * *

test system: Mycobacterium tuberculosis; assay: Antitubercular activity against Mycobacterium tuberculosis H37Rv after 7 days by microbroth dilution method; format: functional; settings: 168 h
Criterion: MIC strictly under 200 µg/mL. Met: Criterion met. Not met: Criterion not met.

>>> print(df.to_string())
                                    compound       answer_label
 0          CC(=O)N(O)CCCP(=O)(OC(C)C)OC(C)C  Criterion not met
 1           CC(=O)N(O)CCCP(=O)([O-])O.[Na+]  Criterion not met
 2  CCOC(=O)OC(C)OP(=O)(CCCN(O)C(C)=O)OC(C)OC(=O)OCC (configuration not stated)  Criterion not met
 3  CC(=O)N(O)CCCP(=O)(OCOC(=O)c1ccccc1)OCOC(=O)c1ccccc1      Criterion met
 4  CC(=O)N(O)CCCP(=O)(OCC(=O)OC(C)(C)C)OCC(=O)OC(C)(C)C  Criterion not met
 5  CC(=O)N(O)CCCP(=O)(OC(C)OC(=O)c1ccccc1)OC(C)OC(=O)c1ccccc1 (configuration not stated)      Criterion met
 6        O=CN(O)CCCP(=O)(O)O [FOSMIDOMYCIN]  Criterion not met
 7  CC(=O)N(O)CCCP(=O)(OCOC(=O)C(C)(C)C)OCOC(=O)C(C)(C)C      Criterion met
 8        CCCCCCOP(=O)(CCCN(O)C(C)=O)OCCCCCC      Criterion met
 9                   CCOP(=O)(CCCN(O)C=O)OCC  Criterion not met
10  CC(=O)N(O)CCCP(=O)(OC(C)OC(=O)OC(C)(C)C)OC(C)OC(=O)OC(C)(C)C (configuration not stated)  Criterion not met

The measured values listed here are drawn from ChEMBL document CHEMBL1921781.
